Method Notes: CCTE_Shafer_MEA_dev_mutual_information_norm: CCTE's Neural Network Formation Assay for Mutual Information Normalization, Shafer Lab (AID 2284091)
Active and inactive are the calls of the source. How the source made its calls: active means hit-call score of the fitted dose curve at least 0.9, where 1 is the maximum; inactive means score below 0.9.
Please state which outcome applies, choosing from active, inactive

# lookup: test call for CC1(c2ccc(Oc3ccccc3)cc2)OC(=O)N(Nc2ccccc2)C1=O (stereo unspecified)
active

Status in this test for O=C(O)COc1ccc(Cl)cc1Cl ?
active

Answer briefly: the call reported for O=C(O)C(F)(F)C(F)(F)C(F)(F)C(F)(F)C(F)(F)C(F)(F)C(F)(F)F in this assay.
inactive

Hi, sorry to bother you, what did the test record for CCC(C)(C)C(=O)OC1=C(c2ccc(Cl)cc2Cl)C(=O)OC12CCCCC2 ?
inactive

Recorded call for CC(C)N(C(=O)COc1nnc(C(F)(F)F)s1)c1ccc(F)cc1 ?
inactive

Any idea what this test logged for O=S1OCC2C(CO1)C1(Cl)C(Cl)=C(Cl)C2(Cl)C1(Cl)Cl (stereo unspecified) ?
active
